- System under test: human TYK2 (Homo sapiens, UniProt P29597)
- Construct: catalytic domain (amino acids 871-1187; catalog number 08-147)
- Sequence (P29597 871-1187): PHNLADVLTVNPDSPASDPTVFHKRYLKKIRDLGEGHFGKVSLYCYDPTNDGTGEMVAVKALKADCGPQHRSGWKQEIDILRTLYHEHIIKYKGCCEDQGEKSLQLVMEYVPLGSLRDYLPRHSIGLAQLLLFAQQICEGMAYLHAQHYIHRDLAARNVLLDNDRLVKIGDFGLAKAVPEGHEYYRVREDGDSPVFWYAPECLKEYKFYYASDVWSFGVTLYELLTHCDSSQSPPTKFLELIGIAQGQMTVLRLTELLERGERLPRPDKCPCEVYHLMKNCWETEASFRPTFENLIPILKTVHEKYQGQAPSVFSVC
- Protocol: TYK2 inhibition assay
- Experimental setup: recombinant human TYK2 catalytic domain, polyGT substrate
Entries and their measured IC50 follow.

[
  {
    "Molecule": "CCc1cc(CNC2CCN(C(=O)OC(C)(C)C)C2)ccc1N(C)c1cc2c(cn1)ncn2C (centres unmarked)",
    "IC50": "101 to 500 nM"
  },
  {
    "Molecule": "CCc1cc(CN2CCC(F)(F)CC2)ccc1N(C)c1cc2c(cn1)ncn2C",
    "IC50": "501 to 1000 nM"
  },
  {
    "Molecule": "CCc1cc(C(C#N)N2CCOCC2)ncc1N(C)c1cc2c(cn1)ncn2C (centres unmarked)",
    "IC50": "0.01 to 100 nM"
  }
]

## Task Field request: IC50 | item: CCc1cc(CNS(N)(=O)=O)ccc1N(C)c1cc2c(cn1)ncn2C
## Result 0.01 to 100 nM

## Task Field request: IC50 | item: CN(c1cc2c(cn1)ncn2C)c1ccc(CN(CC#N)S(C)(=O)=O)cc1F
## Result 101 to 500 nM

## Task Field request: IC50 | item: CCc1cc(C2CN(S(C)(=O)=O)C2)ncc1N(C)c1cc2c(cn1)ncn2C
## Result 501 to 1000 nM

## Task Field request: IC50 | item: CCc1cc(CNS(=O)(=O)C(F)F)c(F)cc1N(C)c1cc2c(cn1)ncn2C
## Result 0.01 to 100 nM

## Task Field request: IC50 | item: CCc1cc(N2CC(N)C2)ncc1N(C)c1cc2c(cn1)ncn2C
## Result > 1000 nM
